# key: entry, value: IC50
# TESTED TARGET: Gamma-secretase
# PROTOCOL: Modulation of gamma-secretase-mediated notch signaling in HEK293 cells transfected with human APP Swedish and London mutation and Notch1 with truncated extracellular EGF repeat domain assessed as production of notch intracellular domain by MSD-based sandwich immunoassay
# Type: cell-based

{"SMILES CODE": "COc1cc(/C=C2\\CCCN3C2=NO[C@]3(CO)c2ccc(F)cc2)ccc1-n1cnc(C)c1", "TESTED TARGET": "Gamma-secretase", "IC50": "> 50 µM"}

The record that follows has no IC50 shown yet.
Task: # IC50 lookup, item `COc1cc(/C=C2\CCCN3C2=NOC[C@@H]3c2cc(F)c(F)c(F)c2)ccc1-n1cnc(C)c1`
Output: > 50 µM

----------
# TESTED TARGET: Gamma-secretase
# PROTOCOL: Modulation of gamma-secretase-mediated cleavage of human APP Swedish and London mutation expressed in HEK293 cells assessed as inhibition of amyloid beta42 production after 5 hrs by sandwich immunoassay
# Format: cell-based
pIC50: −log10 of the molar value.
READOUT TYPE: pIC50

# annotated cases, reported pIC50 shown
{"MOLECULE": "COc1cc(/C=C2\\CCCN(C3(c4ccccc4)CCOCC3)C2=O)ccc1-n1cnc(C)c1", "TESTED TARGET": "Gamma-secretase", "MEASURED NUMBER": 7.25}
{"MOLECULE": "COc1cc(/C=C2\\CCCN3C2=NO[C@]3(CN(C)S(C)(=O)=O)c2ccc(F)cc2)ccc1-n1cnc(C)c1", "TESTED TARGET": "Gamma-secretase", "MEASURED NUMBER": 7.14}
{"MOLECULE": "COc1cc(/C=C2\\CCCN3C2=NOC3(CO)c2cc(F)c(F)c(F)c2)ccc1-n1cnc(C)c1 (single isomer, unassigned)", "TESTED TARGET": "Gamma-secretase", "MEASURED NUMBER": 7.82}
{"MOLECULE": "COc1cc(/C=C2\\CCCN3C2=NOC3(CO)c2ccccc2)ccc1-n1cnc(C)c1 (single isomer, unassigned)", "TESTED TARGET": "Gamma-secretase", "MEASURED NUMBER": 7.02}
{"MOLECULE": "COc1cc(/C=C2\\CCCN3C2=NOC3(CO)c2ccc(C#N)cc2)ccc1-n1cnc(C)c1 (single isomer, unassigned)", "TESTED TARGET": "Gamma-secretase", "MEASURED NUMBER": 6.93}

[I] COc1cc(/C=C2\CCCN3C2=NOC[C@@H]3c2cc(F)c(F)c(F)c2)ccc1-n1cnc(C)c1
[II] COCCCN(C(=O)/C=C/c1ccc(-n2cnc(C)c2)c(OC)c1)c1cccc2ccccc12
Task: // which entry has the larger pIC50 value, I or II ? Write the label of whichever entry you select.
Output: I
(I: 7.48, II: 7.22)

----------
# PROTOCOL: AUC in dog at 10 mg/kg, po
# Type: ADME, organism-based, Canis lupus familiaris, Plasma
# Set-up: dose 10 mg/kg, route oral
# CONDITION CONTEXT: plasma
READOUT TYPE: AUC (µM·h)

{"SMILES CODE": "COc1cc(/C=C2\\CCCN3C2=NOC[C@@H]3c2cc(F)c(F)c(F)c2)ccc1-n1cnc(C)c1", "AUC / µM·h": 27}
{"SMILES CODE": "COc1cc(/C=C2\\CCCN3C2=NO[C@]3(CO)c2ccc(F)cc2)ccc1-n1cnc(C)c1", "AUC / µM·h": 26}
